Data provenance: paper PMC13355314

# assayName: GSH chemical stability
# Type: physicochemical
# conditionDetails: glutathione (GSH) solution; GSH, 120 min
quantityKind: remaining at 2 h (%)
Give the value in % but do not write % after it.

Req: Any idea what remaining at 2 h was measured for CN(C)C/C=C/C(=O)Nc1cc2c(Nc3ccc(F)c(Cl)c3)ncnc2cc1O[C@H]1CCOC1 [Afatinib, reference compound] ?
Resp: 3.43

###

# assayName: GSH chemical stability
# Type: physicochemical
# conditionDetails: glutathione (GSH) solution; GSH, 15 min
quantityKind: remaining at […] (%)
Give the value in % but do not write % after it.

Req: Any idea what remaining at […] was measured for CN(C)C/C=C/C(=O)Nc1cc2c(Nc3ccc(F)c(Cl)c3)ncnc2cc1O[C@H]1CCOC1 [Afatinib, reference compound] ?
Resp: 48.1

###

# assayName: GSH chemical stability
# Assay type: physicochemical
# conditionDetails: glutathione (GSH) solution; GSH, 60 min
quantityKind: remaining at 1 h (%)
Give the value in % but do not write % after it.

Req: Any idea what remaining at 1 h was measured for CN(C)C/C=C/C(=O)Nc1cc2c(Nc3ccc(F)c(Cl)c3)ncnc2cc1O[C@H]1CCOC1 [Afatinib, reference compound] ?
Resp: 13.8

###

# assayName: GSH chemical stability
# Assay type: physicochemical
# conditionDetails: buffer; GSH, 5 min
Each item that follows carries a reported remaining at 5 min.
Give the value in % but do not write % after it.

# molecule, remaining at 5 min (%)
measured = [
    ("Cc1sc2c(c1C)C(c1ccc(NC(=O)c3cc(Cl)c(S(=O)(=O)F)c(Cl)c3)cc1)=N[C@@H](CC(=O)OC(C)(C)C)c1nnc(C)n1-2 [ZZ2]", 9.27),
]

Consider the record given below.
Req: Any idea what remaining at 5 min was measured for Cc1sc2c(c1C)C(c1ccc(NC(=O)c3ccc(S(=O)(=O)F)c(Cl)c3)cc1)=N[C@@H](CC(=O)OC(C)(C)C)c1nnc(C)n1-2 [ZZ1] ?
Resp: 26.7

###

# assayName: Plasma stability, mouse
# Type: in vitro ADME
# conditionDetails: read-out: Plasma Stability (T1/2 min)
quantityKind: half-life
Form entry: enter the amount, then its unit.

# chemicalSmiles, quantityKind, valueObserved
data = [
    ("Cc1sc2c(c1C)C(c1ccc(NC(=O)c3ccc(S(=O)(=O)F)c(Cl)c3)cc1)=N[C@@H](CC(=O)OC(C)(C)C)c1nnc(C)n1-2", "half-life", "57 min"),
]

Consider the record given below.
Req: Any idea what half-life was measured for Cc1sc2c(c1C)C(c1ccc(NC(=O)c3cc(Cl)c(S(=O)(=O)F)c(Cl)c3)cc1)=N[C@@H](CC(=O)OC(C)(C)C)c1nnc(C)n1-2 ?
Resp: 7 min

###

# assayName: GSH chemical stability
# Assay type: physicochemical
# conditionDetails: glutathione (GSH) solution; GSH, 30 min
# Text: Afatinib Time Peak Area %Remaining Ln T1/2 (Ctrl) (min) Ratio (%remaining) (min) (min) Ratio (%remaining) (min)
quantityKind: remaining at 0.5 h (%)
Give the value in % but do not write % after it.

Req: Any idea what remaining at 0.5 h was measured for CN(C)C/C=C/C(=O)Nc1cc2c(Nc3ccc(F)c(Cl)c3)ncnc2cc1O[C@H]1CCOC1 [Afatinib, reference compound] ?
Resp: 27.6

###

# assayName: GSH chemical stability
# Assay type: physicochemical
# conditionDetails: buffer; GSH, 120 min
Each item that follows carries a reported remaining at 2 h.
Give the value in % but do not write % after it.

# molecule, u, remaining at 2 h
records = [
    ("Cc1sc2c(c1C)C(c1ccc(NC(=O)c3ccc(S(=O)(=O)F)c(Cl)c3)cc1)=N[C@@H](CC(=O)OC(C)(C)C)c1nnc(C)n1-2 [ZZ1]", "%", 2.27),
]

Req: Any idea what remaining at 2 h was measured for Cc1sc2c(c1C)C(c1ccc(NC(=O)c3cc(Cl)c(S(=O)(=O)F)c(Cl)c3)cc1)=N[C@@H](CC(=O)OC(C)(C)C)c1nnc(C)n1-2 [ZZ2] ?
Resp: 0

###

Each item that follows carries a reported remaining at […].
# assayName: GSH chemical stability
# Type: physicochemical
# conditionDetails: buffer; GSH, 15 min
Give the value in % but do not write % after it.

# compound, valueObserved
rows = [
    ("Cc1sc2c(c1C)C(c1ccc(NC(=O)c3ccc(S(=O)(=O)F)c(Cl)c3)cc1)=N[C@@H](CC(=O)OC(C)(C)C)c1nnc(C)n1-2 [ZZ1]", 9.36),
]

Consider the record given below.
Req: Any idea what remaining at […] was measured for Cc1sc2c(c1C)C(c1ccc(NC(=O)c3cc(Cl)c(S(=O)(=O)F)c(Cl)c3)cc1)=N[C@@H](CC(=O)OC(C)(C)C)c1nnc(C)n1-2 [ZZ2] ?
Resp: 4.72

###

# assayName: GSH chemical stability
# Type: physicochemical
# conditionDetails: buffer; GSH, 30 min
quantityKind: remaining at 0.5 h (%)
Give the value in % but do not write % after it.

# chemicalSmiles, remaining at 0.5 h (%)
data = [
    ("Cc1sc2c(c1C)C(c1ccc(NC(=O)c3ccc(S(=O)(=O)F)c(Cl)c3)cc1)=N[C@@H](CC(=O)OC(C)(C)C)c1nnc(C)n1-2", 3.21),
]

Req: Any idea what remaining at 0.5 h was measured for Cc1sc2c(c1C)C(c1ccc(NC(=O)c3cc(Cl)c(S(=O)(=O)F)c(Cl)c3)cc1)=N[C@@H](CC(=O)OC(C)(C)C)c1nnc(C)n1-2 ?
Resp: 0
